Biological target: Heat shock 70 kDa protein 1A (Homo sapiens) (UniProt P0DMV8)
Sequence (P0DMV8 2-641 limits assumed): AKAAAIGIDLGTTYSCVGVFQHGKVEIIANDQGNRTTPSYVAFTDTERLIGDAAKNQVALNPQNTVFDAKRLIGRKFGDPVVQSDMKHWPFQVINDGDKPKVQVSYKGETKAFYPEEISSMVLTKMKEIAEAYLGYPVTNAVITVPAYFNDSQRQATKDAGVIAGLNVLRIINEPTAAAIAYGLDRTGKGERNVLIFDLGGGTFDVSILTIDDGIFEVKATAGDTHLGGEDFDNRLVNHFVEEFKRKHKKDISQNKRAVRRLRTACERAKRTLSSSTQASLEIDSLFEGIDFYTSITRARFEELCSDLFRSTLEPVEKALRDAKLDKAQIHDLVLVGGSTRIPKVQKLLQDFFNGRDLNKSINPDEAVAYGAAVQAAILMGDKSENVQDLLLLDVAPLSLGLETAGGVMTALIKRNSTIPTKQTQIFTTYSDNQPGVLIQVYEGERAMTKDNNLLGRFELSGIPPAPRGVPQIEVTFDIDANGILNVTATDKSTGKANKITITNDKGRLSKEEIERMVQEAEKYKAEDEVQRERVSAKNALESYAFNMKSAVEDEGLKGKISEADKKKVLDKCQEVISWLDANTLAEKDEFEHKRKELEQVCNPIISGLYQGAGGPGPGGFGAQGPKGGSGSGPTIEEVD
Assay: Effect on human HSPA1A ATPase activity assessed as fold change in Kcat at 100 uM in presence of J-domain containing Hdj1 co-chaperone relative to control
assay-endpoint: fold change (FC)
// response body must contain only the number

Input line: Form: Entry = CC1=C(C(=O)OCc2ccccc2)C(c2ccc([N+](=O)[O-])cc2)NC(=O)N1CCCC(=O)N(CCN1CCOCC1)C(C(=O)NC(C)(C)C)c1ccc(-c2ccccc2)cc1 (centres undefined) | System = Heat shock 70 kDa protein 1A (Homo sapiens) (UniProt P0DMV8) | fold change (FC) = ____
Output line: 2.9

Input line: Please provide the recorded fold change (FC) for CCOC(=O)C1=C(C)N(CCCCCC(=O)O)C(=O)NC1c1cccc([N+](=O)[O-])c1 (centres undefined) , tested on Heat shock 70 kDa protein 1A (Homo sapiens) (UniProt P0DMV8).
Output line: 1.1

Input line: Lab note: need fold change (FC) for COC(=O)C1=C(Cc2ccccc2)NC(=O)NC1c1ccc2ccccc2c1 (centres undefined) on Heat shock 70 kDa protein 1A (Homo sapiens) (UniProt P0DMV8), anyone have it?
Output line: 2.5

Input line: Look up fold change (FC) with Heat shock 70 kDa protein 1A (Homo sapiens) (UniProt P0DMV8) for this molecule: CCOC(=O)C1=C(C)N(CCCC(=O)NCCn2c(-c3ccccc3)cc(C(=O)OC)c2C)C(=O)NC1c1ccc([N+](=O)[O-])cc1 (centres undefined)
Output line: 4.3

====

Molecular target: Heat shock 70 kDa protein 1A (Homo sapiens) (UniProt P0DMV8)
Assay: Inhibition of human HSPA1A ATPase activity assessed as residual enzyme activity at 300 uM relative to control
Would you mind telling me the reported fold change (FC) of each entry?
Provide a numeric answer; units are not to be included.

Input line: Please give the measured fold change (FC) for this compound: CC1=C(C(=O)OCc2ccccc2)C(c2ccc([N+](=O)[O-])cc2)NC(=O)N1CCCC(=O)N(CCN1CCOCC1)C(C(=O)NC(C)(C)C)c1ccc(-c2ccccc2)cc1 (stereo not drawn)
Output line: 0.82

Input line: What does the data say about its fold change (FC)? Entry: CCOC(=O)C1=C(C)N(CCCC(=O)NCCn2c(-c3ccccc3)cc(C(=O)OC)c2C)C(=O)NC1c1ccc([N+](=O)[O-])cc1 (stereo not drawn)
Output line: 0.8

Input line: Any idea what its fold change (FC) is? The compound is CCCCN1C(=O)NC(c2ccc(OC)cc2)C(C(=O)OCc2ccccc2)=C1C (stereo not drawn)
Output line: 0.8

====

Target: Heat shock protein SSA1 (Saccharomyces cerevisiae) (UniProt P10591)
Assay: Effect on yeast Hsp70 Ssa1 ATPase activity assessed as fold change in Kcat at 100 uM relative to control
assay-endpoint: fold change (FC)
Would you mind answering with just the numeric figure?

Input line: Give the measured fold change (FC) of CCOC(=O)C1=C(C)N(CCCC(=O)NCCn2c(-c3ccccc3)cc(C(=O)OC)c2C)C(=O)NC1c1ccc([N+](=O)[O-])cc1 (stereo unspecified) .
Output line: -1.3

Input line: Dear colleague, I am looking for the recorded fold change (FC) of the following compound: CCOC(=O)C1=C(C)N(Cc2ccccc2)C(=O)NC1c1ccccc1OS(=O)(=O)c1ccccc1[N+](=O)[O-] (stereo unspecified)
Output line: 2.1

Input line: Entry COC(=O)C1=C(Cc2ccccc2)NC(=O)NC1c1ccc2ccccc2c1 (stereo unspecified) has what fold change (FC)?
Output line: 2

Input line: Which measured fold change (FC) value corresponds to CCOC(=O)C1=C(C)N(CCCCCC(=O)O)C(=O)NC1c1cccc([N+](=O)[O-])c1 (stereo unspecified) ?
Output line: 1.3

Input line: What value of fold change (FC) has been recorded for this entry: CCCCCCN(C(=O)CCCCCN1C(=O)NC(c2ccc(-c3ccccc3)cc2)C(C(=O)OCc2ccccc2)=C1C)C(C(=O)NCCCC)C1CCCCC1 (stereo unspecified)
Output line: -1.7

Input line: Which fold change (FC) value is on record for CCCCNC(=O)C(c1ccc(-c2ccccc2)cc1)N(CCN1CCOCC1)C(=O)CCCCCN1C(=O)NC(c2ccc([N+](=O)[O-])cc2)C(C(=O)OCc2ccccc2)=C1C (stereo unspecified) ?
Output line: -1.6
